Attribution: paper PMC3064895

assay: Plasma pharmacokinetics at steady state of sorafenib; format: in vivo, patients with advanced cancer; details: human, plasma, oral, 400 mg, C max, geometric mean (% CV), plasma; Day 1 of cycle 2; sorafenib 400 mg bid
Endpoint: Cmax (ng/mL)
Response body: numeric value in ng/mL, unit text excluded.

query: Respond only with Cmax recorded for CNC(=O)c1cc(Oc2ccc(NC(=O)Nc3ccc(Cl)c(C(F)(F)F)c3)cc2)ccn1 [sorafenib]
result: 5400

---

experiment: Plasma pharmacokinetics at steady state of sorafenib; type: in vivo, patients with advanced cancer; conditions: plasma; Day 1 of cycle 5; sorafenib 400 mg bid
Give measured C trough, geometric mean (% CV) for each item. Keep answers brief.

query: Respond only with C trough, geometric mean (% CV) recorded for CNC(=O)c1cc(Oc2ccc(NC(=O)Nc3ccc(Cl)c(C(F)(F)F)c3)cc2)ccn1
result: 3.2 (73.8) mg/L

query: Respond only with C trough, geometric mean (% CV) recorded for NC(=O)c1cc(Oc2ccc(NC(=O)Nc3ccc(Cl)c(C(F)(F)F)c3)cc2)ccn1
result: 0.1 (82.4) mg/L

query: Respond only with C trough, geometric mean (% CV) recorded for CNC(=O)c1cc(Oc2ccc(NC(=O)Nc3ccc(Cl)c(C(F)(F)F)c3)cc2)cc[n+]1[O-]
result: 0.5 (109.4) mg/L

query: Respond only with C trough, geometric mean (% CV) recorded for NC(=O)c1cc(Oc2ccc(NC(=O)Nc3ccc(Cl)c(C(F)(F)F)c3)cc2)cc[n+]1[O-]
result: 0.1 (127.8) mg/L
